# experiment: Human HepG2 cell viability assay in 384 well format
# Assay type: toxicity, cell-based
# Parameters: dose 125 nL, time 70.5 hour; concentration not given beside the values
# conditions-used: HepG2 cells, read-out: Inhibition
Task for the reader: assign each of the following compounds its reported cytotoxicity at 70.5 h.
Supply the numeric figure in %, leaving out any unit text.

Query :: Input `CCn1nc(CC(C)C)cc1C(=O)NCC(F)(F)F` , output reported cytotoxicity at 70.5 h.
Result :: 12.8

Query :: # return recorded cytotoxicity at 70.5 h for entry `Cc1ccccc1Oc1ncccc1CNC1CCC1`
Result :: 1.33

Query :: Indicate its recorded cytotoxicity at 70.5 h; the compound in question is COC(=O)c1ccc(N2CCN(C(=O)c3ccncc3)C(C)C2)cc1 (configuration not stated)
Result :: 15.3

Query :: Provide cytotoxicity at 70.5 h value for the following compound: `Cc1ccc(CN2CCn3c(CN(C)C(C)C)cnc3C2)s1`
Result :: -6.07

Query :: Quick one: give measured cytotoxicity at 70.5 h for `CCC(CC)NC(=O)Cn1cc(-c2ccccc2)cn1`
Result :: -2.71

Query :: State its cytotoxicity at 70.5 h: O=C1NCCCCC1NCc1csc(-c2ccsc2)n1 (configuration not stated)
Result :: 7.38

Query :: Report cytotoxicity at 70.5 h, nothing else, for this compound: `COCc1cncc2c1CCN(C(=O)c1ccc(C#N)cc1)C2`
Result :: -10.3

Query :: Using known records, supply cytotoxicity at 70.5 h for `O=C(C1CCCCC1)N1C[C@@H]2CCN(c3cnccn3)C[C@@H]2C1`
Result :: -6.4

Query :: Find the measured cytotoxicity at 70.5 h of O=C(CN(CC(O)c1ccc(F)cc1)C1CC1)NC1CCOCC1 (configuration not stated) and report it.
Result :: -91.7

Query :: Could you please provide reported cytotoxicity at 70.5 h for `O=C(N[C@@H]1CNCCC[C@H]1O)c1ccc(OCc2ccccc2)cc1` ? Thanks!
Result :: -2.25

Query :: Report measured cytotoxicity at 70.5 h; entry is `CCCN1CCC2(CC1)CN(C(=O)c1cccnc1)c1ccc(F)cc12`
Result :: -8.65

Query :: Report cytotoxicity at 70.5 h, nothing else, for this compound: `Cc1ccsc1-c1nnc(C2CCN(Cc3ccc(F)cc3)CC2)o1`
Result :: -21.5

---

Kindly supply the reported cytotoxicity at 70.5 h values for the records listed here.
# experiment: Human HepG2 cell viability assay in 384 well format
# Format: toxicity, cell-based
# Parameters: dose 125 nL, time 70.5 hour; concentration not given beside the values
# conditions-used: HepG2 cells, read-out: Inhibition
Report the value in % with no unit label.

Query :: Item `COC[C@]1(O)CCN(c2cc(OC)ncn2)CC1(C)C` : provide cytotoxicity at 70.5 h
Result :: -11.7

Query :: Give recorded cytotoxicity at 70.5 h. `O=C(c1ccc(O)nc1)N1CCc2ccc(O)cc2C1`
Result :: -13

Query :: // fetch cytotoxicity at 70.5 h given entry `CCOCCCNC(=O)CCCC(=O)n1nc(C)c2ccccc21`
Result :: -3.2

Query :: Supply measured cytotoxicity at 70.5 h of `N#Cc1cccc(S(=O)(=O)N(CC2CCC2)c2cn[nH]c2)c1` in your reply.
Result :: -8.03

Query :: Indicate the recorded cytotoxicity at 70.5 h value for this compound: `Cc1ncsc1CCN(C)C1CCN(c2ncnc3[nH]cnc23)CC1`
Result :: -6.66

Query :: Read the entry `CCSc1nnc([C@@H](N)CC(C)C)o1` and write its reported cytotoxicity at 70.5 h.
Result :: -7.55

Query :: Please report the measured cytotoxicity at 70.5 h for CC(Oc1cc(Cl)cc(Cl)c1)C(=O)NCCOCC(N)=O (centres undefined)
Result :: 18

Query :: Supply reported cytotoxicity at 70.5 h belonging to this compound: `CN1CCN(CC2CC2)C(=O)c2cnc(N3CCOCC3)nc21`
Result :: -3.35

Query :: State its cytotoxicity at 70.5 h for this compound: `CCCc1ccc2oc(C(=O)N3CCC(O)CC3)c(C)c2c1`
Result :: 6.68

Query :: Return value of cytotoxicity at 70.5 h for input `COC(=O)c1cccc(C(=O)N2CCN(c3ccc(Cl)cc3)CC2)n1` , no commentary.
Result :: -6.13

Query :: For the compound `O=C(c1cocn1)N1C[C@H]2CCC[C@@]2(COc2ccccn2)C1` , give its measured cytotoxicity at 70.5 h value.
Result :: 8.39

Query :: Specify reported cytotoxicity at 70.5 h for the compound shown: `Cn1c(=O)oc2cc(S(=O)(=O)N3CCCCC3)c(Cl)cc21`
Result :: 47.9

Query :: For the compound COCCC(Cc1cccc(Br)c1)C(N)=O (centres undefined) , give its measured cytotoxicity at 70.5 h value.
Result :: -7.63

Query :: Give the value of cytotoxicity at 70.5 h reported for the following: `O=C(NC1CC1)C1=CC2(CCN(CC3CC3)CC2)c2ccccc21`
Result :: -4.67

Query :: Specify reported cytotoxicity at 70.5 h for the compound shown: `Cc1noc(OCCOc2cccc(C#N)c2)n1`
Result :: -3.56

Query :: Supply reported cytotoxicity at 70.5 h belonging to this compound: `c1ccc(O[C@@H]2CO[C@@]3(CCCN(CC4CCOCC4)C3)C2)nc1`
Result :: -8.71

Query :: Supply cytotoxicity at 70.5 h value. Item: `CN(CC1(C)COC1)C(=O)c1cc(-c2ccn(C)n2)nc2ccccc12`
Result :: 14.1

Query :: Identify measured cytotoxicity at 70.5 h corresponding to O=C(NCc1cnn2cccnc12)C1CC(=O)N(Cc2cccnc2)C1 (centres undefined)
Result :: 30.6

Query :: Answer with reported cytotoxicity at 70.5 h of Cc1cc(C)n2nc(C(=O)N3CCCC4(CNC(=O)O4)C3)cc2n1 (centres undefined)
Result :: 13.7

Query :: Given the compound `CN(Cc1cnn(C)c1)C(=O)CCC(=O)c1ccc2c(c1)OCCO2` , write its reported cytotoxicity at 70.5 h.
Result :: -82.6

Query :: Kindly indicate its recorded cytotoxicity at 70.5 h. Item: Cc1[nH]ccc1C(=O)N1CCN(C)C2(CCC(=O)N(C)CC2)C1 (centres undefined)
Result :: -11.2

Query :: Answer with the recorded cytotoxicity at 70.5 h of CC1COCCN1Cc1nc(-c2ccc(F)cc2)no1 (centres undefined) only.
Result :: -0.197

Query :: Name the recorded cytotoxicity at 70.5 h of the compound listed here: O=c1[nH]c(C2CCOC2)nc2cc(F)c(F)cc12 (centres undefined)
Result :: -10.3

Query :: Answer with the recorded cytotoxicity at 70.5 h of CCOc1ccc(Cl)cc1C(C(=O)O)N1CCC(CO)CC1 (centres undefined) only.
Result :: 0.285
